TEST DESCRIPTION: CHI Log D procedure
Type: physicochemical
CONDITIONS USED: pH 7.4, CHI Log D

COMPOUND	chromatographic logD
CC(=O)N1CCC[C@]12CC=CCCCC1(CCCC=CCCCCCC[C@@](C)(C(=O)N[C@@H](Cc3ccsc3)C(=O)N[C@@H](Cc3csc4ccccc34)C(=O)N[C@@H](Cc3c[nH]cn3)C(N)=O)NC(=O)[C@H](CC(N)=O)NC(=O)[C@H](Cc3ccccc3)NC(=O)[C@H](C)NC(=O)[C@H](C)NC(=O)[C@H](CN(CC(=O)O)CC(F)(F)F)NC(=O)[C@H](CC(=O)O)NC1=O)NC(=O)[C@H](CC(C)(C)C)NC(=O)[C@H](CC(=O)O)NC2=O (some centres unmarked) [I-705]	2.89
CC(=O)N1CCC[C@]12CC=CCCCC1(CCCC=CCCCOC(=O)N3CC[C@@](C(=O)N[C@@H](CC(=O)O)C(=O)N[C@@H](Cc4csc5ccccc45)C(=O)N[C@@H](CCC(N)=O)C(N)=O)(C3)NC(=O)[C@H](CC(N)=O)NC(=O)[C@H](Cc3ccccc3)NC(=O)[C@H](C)NC(=O)[C@H](C)NC(=O)[C@H](CN(CC(=O)O)CC(F)(F)F)NC(=O)[C@H](Cc3ccsc3)NC1=O)NC(=O)[C@H](CC(C)(C)C)NC(=O)[C@H](CC(=O)O)NC2=O (some centres unmarked) [I-1001]	1.89

----------
TESTED SYSTEM: full-length B-Catenin (Uniprot ID P35222) (Homo sapiens, UniProt P35222)
Construct: 65 nM full-length B-Catenin (Uniprot ID P35222)
Sequence (P35222 whole entry): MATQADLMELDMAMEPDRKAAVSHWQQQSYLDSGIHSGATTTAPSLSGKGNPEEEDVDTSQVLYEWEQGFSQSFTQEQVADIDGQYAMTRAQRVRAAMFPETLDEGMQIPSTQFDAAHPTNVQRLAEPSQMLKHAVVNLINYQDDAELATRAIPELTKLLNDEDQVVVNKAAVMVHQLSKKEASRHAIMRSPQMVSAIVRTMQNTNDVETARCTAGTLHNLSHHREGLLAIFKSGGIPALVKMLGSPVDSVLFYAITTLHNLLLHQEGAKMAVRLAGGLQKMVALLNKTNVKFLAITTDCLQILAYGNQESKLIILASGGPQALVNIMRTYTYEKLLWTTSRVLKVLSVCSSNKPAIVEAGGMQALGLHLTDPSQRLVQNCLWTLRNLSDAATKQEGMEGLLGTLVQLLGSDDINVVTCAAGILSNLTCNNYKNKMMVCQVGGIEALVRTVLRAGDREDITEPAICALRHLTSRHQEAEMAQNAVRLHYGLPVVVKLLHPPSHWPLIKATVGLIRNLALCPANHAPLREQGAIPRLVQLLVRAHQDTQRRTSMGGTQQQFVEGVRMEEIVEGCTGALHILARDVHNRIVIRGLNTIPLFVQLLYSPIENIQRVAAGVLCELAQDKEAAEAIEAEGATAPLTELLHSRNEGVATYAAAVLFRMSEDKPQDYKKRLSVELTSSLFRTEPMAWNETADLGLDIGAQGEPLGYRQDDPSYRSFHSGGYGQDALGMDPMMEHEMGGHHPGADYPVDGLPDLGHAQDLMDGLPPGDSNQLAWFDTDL
TEST DESCRIPTION: Alphascreen binding assay (beta-catenin / biotin-TCF4 10-53)
pEC50: −log10 of the molar value.

MOLECULE	pEC50
CC(=O)N1CCC[C@]12CC=CCCCC1(CCCC=CCCCCCC[C@@](C)(C(=O)N[C@@H](Cc3ccccc3)C(=O)N[C@@H](Cc3c[nH]c4ccccc34)C(=O)N[C@@H](CCC(N)=O)C(N)=O)NC(=O)[C@H](C)NC(=O)[C@H](Cc3ccccc3)NC(=O)[C@H](C)NC(=O)[C@H](C)NC(=O)[C@H](CC(=O)O)NC(=O)[C@H](CC(=O)O)NC1=O)NC(=O)[C@H](C)NC(=O)[C@H](CC(=O)O)NC2=O (stereo partly shown) [I-288]	7.13

----------
TEST DESCRIPTION: Solubility in PBS
Assay type: physicochemical
CONDITIONS USED: Solubility (uM)
Collected Solubility values appear next to each entry.

COMPOUND	UNIT SPEC	Solubility
CC(=O)N1CCC[C@]12CC=CCCCC1(CCCC=CCCCOC(=O)N3CC[C@@](C(=O)N[C@@H](Cc4ccccc4Cl)C(=O)N[C@@H](Cc4csc5ccccc45)C(=O)N[C@@H](CCC(N)=O)C(N)=O)(C3)NC(=O)[C@H](CO)NC(=O)[C@H](Cc3ccccc3)NC(=O)[C@H](C)NC(=O)[C@H](C)NC(=O)[C@H](CC(=O)O)NC(=O)[C@H](CC(=O)O)NC1=O)NC(=O)[C@H](Cc1cccc3ccccc13)NC(=O)[C@H](CC(=O)O)NC2=O (some centres unmarked)	µM	42
CC(=O)N1CCC[C@]12CC=CCCCC1(CCCC=CCCCCCC[C@@](C)(C(=O)N[C@@H](Cc3ccccc3Cl)C(=O)N[C@@H](Cc3csc4ccccc34)C(=O)N[C@H](CO)[C@@H](C)O)NC(=O)[C@H]([C@@H](C)O)NC(=O)[C@H](Cc3ccccc3)NC(=O)[C@H](C)NC(=O)[C@H](C)NC(=O)[C@H](CC(=O)O)NC(=O)[C@H](CC(=O)O)NC1=O)NC(=O)[C@H](CC(C)(C)C)NC(=O)[C@H](CC(=O)O)NC2=O (some centres unmarked)	µM	47
CC(=O)N1CCC[C@]12CC=CCCCC1(CCCC=CCCCOC(=O)N3CC[C@@](C(=O)N[C@@H](Cc4ccsc4)C(=O)N[C@@H](Cc4csc5ccccc45)C(=O)N[C@@H](CCC(N)=O)C(N)=O)(C3)NC(=O)[C@H](CC(N)=O)NC(=O)[C@H](Cc3cscn3)NC(=O)[C@H](C)NC(=O)[C@H](C)NC(=O)[C@H](CC(=O)O)NC(=O)[C@H](CC(=O)O)NC1=O)NC(=O)[C@H](CC(C)(C)C)NC(=O)[C@H](CC(=O)O)NC2=O (some centres unmarked)	µM	47
CC(=O)N1CCC[C@]12CC=CCCCC1(CCCC=CCCCOC(=O)N3CC[C@@](C(=O)N[C@@H](Cc4ccsc4)C(=O)N[C@@H](Cc4csc5ccccc45)C(=O)N[C@@H](CCC(N)=O)C(=O)N[C@@H](CCCCNC(=O)CCc4cccc5ccccc45)C(N)=O)(C3)NC(=O)[C@H](CC(N)=O)NC(=O)[C@H](Cc3ccccc3)NC(=O)[C@H](C)NC(=O)[C@H](C)NC(=O)[C@H](CC(=O)O)NC(=O)[C@H](CC(=O)O)NC1=O)NC(=O)[C@H](CC(C)(C)C)NC(=O)[C@H](CC(=O)O)NC2=O (some centres unmarked)	µM	43
CC(=O)N1CCC[C@]12CC=CCCCC1(CCCC=CCCCOC(=O)N3CC[C@@](C(=O)N[C@@H](Cc4ccccc4Cl)C(=O)N[C@@H](Cc4csc5ccccc45)C(=O)N[C@@H](CCC(N)=O)C(N)=O)(C3)NC(=O)[C@H](CO)NC(=O)[C@H](Cc3ccccc3)NC(=O)[C@H](C)NC(=O)[C@H](C)NC(=O)[C@H](CC(=O)O)NC(=O)[C@H](CC(=O)O)NC1=O)NC(=O)[C@H](Cc1ccc3ccccc3c1)NC(=O)[C@H](CC(=O)O)NC2=O (some centres unmarked)	µM	45
